molecular target: Neuraminidase (Influenza A virus (A/Puerto Rico/8/1934(H1N1))); test: Inhibition of sialidase (Flu A, 5 nM)
Sequence (P03468 whole entry): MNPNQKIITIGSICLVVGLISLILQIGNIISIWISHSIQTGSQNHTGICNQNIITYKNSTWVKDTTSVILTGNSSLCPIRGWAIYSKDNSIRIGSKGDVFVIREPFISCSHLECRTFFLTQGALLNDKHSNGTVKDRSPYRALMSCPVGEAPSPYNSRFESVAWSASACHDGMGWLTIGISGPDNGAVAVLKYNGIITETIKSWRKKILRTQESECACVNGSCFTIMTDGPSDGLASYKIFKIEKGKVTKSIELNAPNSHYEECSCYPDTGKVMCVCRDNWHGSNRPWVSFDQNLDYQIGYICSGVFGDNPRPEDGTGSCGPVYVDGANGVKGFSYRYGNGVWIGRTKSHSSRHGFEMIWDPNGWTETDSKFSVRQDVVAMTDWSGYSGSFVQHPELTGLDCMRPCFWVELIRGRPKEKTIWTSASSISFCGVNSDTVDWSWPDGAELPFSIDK
pIC50: −log10 of the molar value.

SMILES DATA | COMPARISON SYMBOL | pIC50
CC(=O)N[C@@H]1[C@@H](N)C=C(C(=O)O)O[C@H]1C(=O)NCC(=O)O | < | 3.32
C=CCN(CC=C)C(=O)[C@@H]1OC(C(=O)O)=C[C@H](N)[C@H]1NC(C)=O | = | 7.40
CC(=O)N[C@@H]1[C@@H](N)C=C(C(=O)O)O[C@H]1C(=O)NC1CCCCC1 | = | 4.72
CC(=O)N[C@@H]1[C@@H](N)C=C(C(=O)O)O[C@H]1C(=O)NCCN | < | 3.41
CC(=O)N[C@@H]1[C@@H](N)C=C(C(=O)O)O[C@H]1C(=O)NCCO | = | 3.38
CC(=O)N[C@@H]1[C@@H](NC(=N)N)C=C(C(=O)O)O[C@H]1C(=O)NCCN | = | 4.70

----------
target: Neuraminidase (Influenza B virus (strain B/Lee/1940), UniProt P03474); assay: Inhibition of influenza B virus sialidase activity
Sequence (P03474 whole entry): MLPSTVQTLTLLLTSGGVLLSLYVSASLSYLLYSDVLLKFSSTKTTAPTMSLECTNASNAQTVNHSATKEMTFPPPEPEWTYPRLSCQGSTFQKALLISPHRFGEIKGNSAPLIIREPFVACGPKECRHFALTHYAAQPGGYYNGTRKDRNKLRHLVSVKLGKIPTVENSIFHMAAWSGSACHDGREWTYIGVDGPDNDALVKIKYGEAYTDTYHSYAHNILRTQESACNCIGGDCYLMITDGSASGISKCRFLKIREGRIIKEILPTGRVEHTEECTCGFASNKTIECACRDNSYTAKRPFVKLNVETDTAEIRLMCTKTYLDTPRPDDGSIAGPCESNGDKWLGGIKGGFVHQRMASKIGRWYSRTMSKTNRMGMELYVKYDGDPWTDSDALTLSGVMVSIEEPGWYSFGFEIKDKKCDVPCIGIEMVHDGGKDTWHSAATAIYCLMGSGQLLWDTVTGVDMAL
PROPERTY MEASURED: log10 of IC50 (log10 of the value in µM)

COMPOUND | log10 of IC50
CCCN(CCc1ccc(Cl)cc1Cl)C(=O)[C@@H]1OC(C(=O)O)=C[C@H](N)[C@H]1NC(C)=O | 1.20
CCCN(CCc1ccc(O)cc1)C(=O)[C@@H]1OC(C(=O)O)=C[C@H](N)[C@H]1NC(C)=O | 0.28
CC(=O)N[C@@H]1[C@@H](N)C=C(C(=O)O)O[C@H]1C(=O)N(CCc1ccccc1)C1CC1 | 1.56
CC(=O)N[C@@H]1[C@@H](N)C=C(C(=O)O)O[C@H]1C(=O)N1C(C)CCN1C (some centres not stated) | 1.11
CCCN(CCc1ccc(OC)cc1)C(=O)[C@@H]1OC(C(=O)O)=C[C@H](N)[C@H]1NC(C)=O | 0.52

Origin of measurements: ChEMBL document CHEMBL1131488
